So I've got a bunch of molecules here, and I need their GI50 values.
- Test system: ACHN renal
- TEST_DETAILS: NCI tumour cell line growth inhibition, 48 h

Query the reported GI50 for ACHN renal; item: "C[CH2][Sn]([CH2]C)([O]C(=O)c1ccc(OC)c(OC)c1OC)[O]C(=O)c1ccc(OC)c(OC)c1OC"
51.4 µM

// lookup GI50 | system=ACHN renal | key= "C1C[OH+]CC[OH+]CCNCC[OH+]CC[OH+]CCN1.Cl.[Cl-].[Pt+4]"
> 100 µM

Recorded GI50 for "CSc1ccc(C(=O)/C=C/c2ccccc2Cl)cc1" with ACHN renal, please?
15 µM

Form field: GI50 recorded for "CN1CCN(Cc2cc(NC(=O)c3cccc(C#Cc4cccc5[nH]nc(N)c45)c3)cc(C(F)(F)F)c2)CC1" with ACHN renal (enter value)
1.66 µM

Give the reported GI50 for "C#Cc1cccc(NC(=O)c2ccc(NC(=O)CCl)cc2)c1" (system: ACHN renal).
26.3 µM

Give the reported GI50 for "CCCCCC[C@H](C)NC(=O)c1ccc(Nc2nc3ccccc3c3occc23)cc1" (system: ACHN renal).
13.7 µM

Value wanted: GI50 (ACHN renal) of entry "C[C@@H](Oc1cc(-n2cnc3ccc(OC[C@@H](O)CO)cc32)sc1C(N)=O)c1ccccc1Cl"
6.11 µM

Observed GI50 on ACHN renal for "CCC[CH2][Pb]([Cl])([CH2]CCC)[CH2]CCC" , please.
0.0221 µM

Test system ACHN renal; read-out GI50; what value for "C=C1C(=O)O[C@H]2[C@H]1CC/C(COC(=O)NCCCCCCCCNC(=O)OC/C1=C/CC[C@@]3(C)O[C@H]3[C@H]3OC(=O)C(=C)[C@@H]3CC1)=C\CC[C@@]1(C)O[C@@H]21" ?
0.258 µM

State its GI50 on ACHN renal: "COC1=CC(=O)c2nc(Cl)ccc2C1=O"
1.67 µM

* * *

- Tested on: CAKI-1 renal
- TEST_DETAILS: NCI tumour cell line growth inhibition, 48 h
Exercise: state measured TGI for each of the compounds provided.

// TGI lookup, key: "Cn1cnc([N+](=O)[O-])c1Sc1nccc(=O)[nH]1"
> 100 µM

Item under review: "O=C1C=CC2(C=C1)C[C@H](NC(=O)OCc1ccccc1)C(=O)O2" . Reported TGI?
34.8 µM

Value lookup for TGI; key = "C1CN2CCNCCN(CCN1)CC2"
> 100 µM

Query (compound): O=C(O)CCC(C(=O)O)N1C(=O)C2C3CCC(C3)C2C1=O (stereo unspecified) ; field requested: TGI
> 100 µM

Give the measured TGI of CCCNC(=O)N1CC(CN2CCN(c3ccccc3)CC2)O/C1=N/C(=O)Nc1ccccc1 (stereo unspecified) .
> 100 µM

Look up TGI: "C=CCCCCCCCCC(=O)O"
214 µM

* * *

- Tested on: SN12C renal
- TEST_DETAILS: NCI tumour cell line growth inhibition, 48 h; in the data active = GI50 below about 0.43 µM; inactive = the rest
Pick one: class 1 for active, class 0 for inactive

For this compound, state the assay outcome: "CN1CCN(Cc2ccc(NC(=O)c3cncc(C#Cc4cnc(N)c5cnccc45)c3)cc2C(F)(F)F)CC1"
class 1

State the result this test recorded for N#CC1C(=O)NC(c2ccccc2[N+](=O)[O-])c2sc3c(F)cccc3c21 (configuration not stated) .
class 0

Recorded test outcome, item CCCCCCCC(=O)[O][Hg][CH2]C1COC([CH2][Hg][O]C(=O)CCCCCCC)CO1 (configuration not stated)
class 0

What did this assay record as the result for "Cn1c2ccccc2c2c(=O)n(CCCC(=O)OC(=NC3CCCCC3)NC3CCCCC3)c3c(-c4ccccc4)nnn3c21" ?
class 0

Please share the test call associated with "C=CCc1c(O)c(C(=O)/C=C/c2ccccc2)c(OC)c2ccoc12" .
class 0

Can you look up the reported call for "Nc1ncnc2c1ccn2[C@@H]1O[C@H]([C@H](O)c2ccc(Cl)c(F)c2)[C@@H](O)[C@H]1O" for me?
class 0

Could you please tell me the result logged for "COCc1c(-c2ccc(NC(=O)Nc3cc(C(F)(F)F)ccc3F)c(F)c2)c2c(N)ncnn2c1CN1CCOCC1" in this assay?
class 0

For this compound, state the assay outcome: "CCn1ccc(NS(=O)(=O)c2ccc(N)cc2)nc1=O"
class 0

Called result for "C[C@@H](Oc1cc(-n2cnc3ccc(OC[C@@H](O)CO)cc32)sc1C(N)=O)c1ccccc1Cl"
class 0

In this assay, the call recorded for Cc1ccc(S(=O)(=O)N2CCc3ccc(O)c4c3C2Cc2ccc3c(c2-4)OCO3)cc1 (configuration not stated) was what?
class 0

What outcome does the record of this test show for "COc1cc2c(cc1C)NC(=O)/C2=C\c1c[nH]c2ccccc12" ?
class 0

How did this test come out for "CCN(Cc1ccc(F)cc1)c1ccc(CO)c(OC)c1" ?
class 0

Origin of the recorded values: PubChem BioAssay (NCI)
